- ASSAY_SYSTEM: T1, human bone morphogenic protein 2 (BMP2) (human, UniProt P12643 283-396, Disulfide-linked homodimer of this chain (non-reduced band of about 36 kDa, monomers of 17-18 kDa); one copy is given.)
- T1 construct: Bought recombinant human BMP2 (R&D Systems or Medtronic); also called recombinant human BMP2
- T1 sequence (P12643 283-396 limits assumed): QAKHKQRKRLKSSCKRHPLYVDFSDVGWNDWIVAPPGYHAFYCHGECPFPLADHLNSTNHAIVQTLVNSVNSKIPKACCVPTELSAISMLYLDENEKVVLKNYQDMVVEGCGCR
- TEST_SUMMARY: SPR (Biacore); mAb captured via anti-human Fc, BMP flowed at 10 nM

# BINDER, koff [s⁻¹]
measured = [
    ("7D6 human monoclonal antibody (antibody, V domains shown, Human IgG from a HuMAb/KM mouse hybridoma) VH: QVQLVQSGAEVKKPGSSVKVSCKASGGTFSSYAISWVRQAPGQGLEWMGRIIPILGIVNYAQKFQGRVTITADKSTSTAYMELSSLRSEDTAVYYCARGKDIWGQGTMVTVSS VL: EIVLTQSPGTLSLSPGERATLSCRASQIVISTYLAWYQQKPGQAPRLLIYGASSRATGIPDRFSGSGSGTDFTLTISRLEPEDFAVYYCQQYGSSPCTFGQGTKLEIK", 0.00114),
    ("16B7 human monoclonal antibody (antibody, V domains shown, Human IgG from a HuMAb/KM mouse hybridoma) VH: QVQLVESGGGVVQPGRSLRLSCAASGFTFSNYGIHWVRQAPGKGLEWVAVIWYDGSHKYYADSMKGRFTISRDNSKNTLDLQMNSLRAEDTAVYYCARGSSSWYFDLWGRGTLVTVSS VL: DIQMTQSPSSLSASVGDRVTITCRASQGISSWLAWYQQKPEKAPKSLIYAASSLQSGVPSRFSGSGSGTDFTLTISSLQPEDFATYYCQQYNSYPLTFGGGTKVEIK", 0.000282),
]
